assay-target: BRD2 BD2 (Homo sapiens, UniProt P25440)
Construct: BRD2 BD2, BRD3 BD2 and BRD4 BD2 (Cisbio); purchased Cisbio
Sequence (P25440 344-453 limits assumed): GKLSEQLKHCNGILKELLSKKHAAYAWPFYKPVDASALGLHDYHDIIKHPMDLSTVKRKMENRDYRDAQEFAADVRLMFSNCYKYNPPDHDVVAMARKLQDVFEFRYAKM
test: Binding assay, BRD2 BD2 to acetylated histone H4 Peptide-Biotin (EPIgeneous Binding Domain Kit B)
experimental-parameters: test compound at 300 nmol/L; read-out: Binding inhibition percentage BRD2 BD2
Provide the recorded inhibition at 0.3 µM for the entries that follow.
Answers are plain numbers, in %.

Consider the following illustrative entries.
CCn1c(=O)cc(C2CC2)c2cc(-n3c(=O)[nH]c(=O)n3-c3ccccc3)ccc21 | 90
CCn1c(=O)cc(N2CCOCC2)c2cc(-n3c(-c4ccc(C(F)(F)F)cc4)cn(C)c3=O)ccc21 | 89

Please report inhibition at 0.3 µM for every entry that follows.
1. CCn1c(=O)cc(C2CCN(C)CC2)c2cc(C(=O)N3CCCc4ccccc43)ccc21
2. CCn1c(=O)cc(C2CC2)c2cc(-n3c(-c4ccc(Cl)cc4)cn(C)c3=O)ccc21
3. CCn1c(=O)cc(N2CCOCC2)c2cc(N3C(=O)CC[C@H]3c3ccccc3)ccc21

(A)
1. 79
2. 85
3. 87

Hi there! I need inhibition at 0.3 µM for each item below, if you can.
1. CCn1c(=O)cc(N2CCOCC2)c2cc(-n3c(-c4ccc(Cl)cc4)c[nH]c3=O)ccc21
2. CCn1c(=O)cc(C2CCN(C)CC2)c2cc(C(=O)N(C)c3ccc(C)cc3)ccc21
3. CCn1c(=O)cc(N2CCOCC2)c2cc(-n3c(-c4ccc(C(F)(F)F)cc4)c[nH]c3=O)ccc21
4. CCn1c(=O)cc(N2CCOCC2)c2cc(-n3ccnc3-c3ccccc3)ccc21
5. CCn1c(=O)cc(C2CCN(CCO)CC2)c2cc(C(=O)N(C)c3ccc4c(c3)CCCC4)ccc21

(A)
[89, 74, 89, 89, 88]

====

assay-target: BRD2 BD1 (Homo sapiens)
Construct: BRD2 BD1, BRD3 BD1 and BRD4 BD1 (Cisbio); purchased Cisbio
test: Binding assay, BRD2 BD1 to acetylated histone H4 Peptide-Biotin (EPIgeneous Binding Domain Kit A)
experimental-parameters: test compound at 300 nmol/L; read-out: Binding inhibition percentage BRD2 BD1
assay-readout: inhibition at 0.3 µM (%)
Numbers only, in %.

Here's what some known entries look like.
CCn1c(=O)cc(C2CC2)c2cc(N(C)C(=O)c3ccccc3)ccc21 [Example 2] | 52
CCn1c(=O)cc(C2CCC(O)CC2)c2cc(C(=O)N(C)c3ccc(Cl)cc3)ccc21 (stereo not shown) [Example 286] | 91
CCn1c(=O)cc(N2CCOCC2)c2cc(-c3cccnc3-c3ccccc3)ccc21 [Example 279] | 91

# inhibition at 0.3 µM measured on BRD2 BD1 (Homo sapiens) for item CCn1c(=O)cc(N2CCOCC2)c2cc(-n3c(-c4ccccc4)cn(C(C)C)c3=O)ccc21 [Example 247] = 83

====

assay-target: BRD2 BD1 (Homo sapiens, UniProt P25440)
Construct: BRD2 BD1, BRD3 BD1 and BRD4 BD1 (Cisbio); purchased Cisbio
Sequence (P25440 74-180 limits assumed): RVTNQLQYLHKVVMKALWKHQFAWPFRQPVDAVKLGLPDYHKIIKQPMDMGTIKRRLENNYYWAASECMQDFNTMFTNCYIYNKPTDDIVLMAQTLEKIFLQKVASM
test: Binding assay, BRD2 BD1 to acetylated histone H4 Peptide-Biotin (EPIgeneous Binding Domain Kit A)
experimental-parameters: test compound at 300 nmol/L; read-out: Binding inhibition percentage BRD2 BD1
Source text: BRD2 BD1, BRD3 BD1 and BRD4 BD1 (Cisbio), [Lys(Ac)5/8/12/16]-Histone H4(1-25)-GSGSK (Biotin) (hereinafter referred to as “Peptide-Biotin,” AnaSpec), and EPIgeneous (registered trademark) Binding Domain Kit A (Cisbio) were used to carry out an assay. […]
# cutoff 90% applies to inhibition at 0.3 µM; >= gives fulfilled, < gives not fulfilled

Past entries and their recorded results:
CCn1c(=O)cc(C2CCN(CCO)CC2)c2cc(C(=O)N(C)c3ccc4c(c3)CCCCC4)ccc21 | fulfilled
CCn1c(=O)cc(N2CCOCC2)c2cc(-n3c(-c4ccc(C(F)(F)F)cc4)c[nH]c3=O)ccc21 | not fulfilled
CCn1c(=O)cc(C2CC2)c2cc(-c3nccnc3-c3ccccc3)ccc21 | not fulfilled
CCn1c(=O)cc(C2CCN(C)CC2)c2cc(C(=O)N(C)c3ccc(C)c(Cl)c3)ccc21 | fulfilled
CCN1CCC(c2cc(=O)n(CC)c3ccc(C(=O)N(C)c4ccccc4)cc23)CC1 | fulfilled

(Q) For this compound, is measured inhibition at 0.3 µM 90% or higher? `CCn1c(=O)cc(C2CCN(CCO)CC2)c2cc(C(=O)N(C)c3ccc4c(c3)CCCC4)ccc21`
(A) fulfilled

(Q) Decide: inhibition at 0.3 µM of `CCn1c(=O)cc(C2CCN(C)CC2)c2cc(C(=O)N(C)c3ccc4c(c3)CCC4)ccc21` >= 90%?
(A) fulfilled

(Q) Could you please find out whether CCn1c(=O)cc(C2CC2)c2cc(-n3c(C)cc(=O)n3-c3ccccc3)ccc21 [Example 282b] has inhibition at 0.3 µM that meets 90% or exceeds it?
(A) not fulfilled

(Q) Record `CCn1c(=O)cc(C2CCN(C)CC2)c2cc(C(=O)N(C)c3ccc(C)cc3)ccc21` ; criterion: inhibition at 0.3 µM no lower than 90%. Met?
(A) fulfilled

====

I'd be grateful if you could share measured inhibition at 0.3 µM for these entries.
assay-target: BRD4 BD2 (Homo sapiens, UniProt O60885)
Construct: BRD2 BD2, BRD3 BD2 and BRD4 BD2 (Cisbio); purchased Cisbio
test: Binding assay, BRD4 BD2 to acetylated histone H4 Peptide-Biotin (EPIgeneous Binding Domain Kit B)
experimental-parameters: test compound at 300 nmol/L; read-out: Binding inhibition percentage BRD4 BD2
Give bare numbers, in %.

Example entries and their recorded answers appear below.
CCn1c(=O)cc(C2CCN(C)CC2)c2cc(C(=O)N3CCCc4ccccc43)ccc21 | 83
CCn1c(=O)cc(N2CCOCC2)c2cc(-n3c(-c4ccccc4)c[nH]c3=O)ccc21 | 89
CCn1c(=O)cc(C2CCN(CCO)CC2)c2cc(C(=O)N(C)c3ccc4c(c3)CCCC4)ccc21 | 88
CCn1c(=O)cc(C2CC2)c2cc(-n3c(-c4ccc(C(F)(F)F)cc4)c[nH]c3=O)ccc21 | 87
CCn1c(=O)cc(N2CCOCC2)c2cc(-c3nccn3-c3ccccc3)ccc21 | 88

Give inhibition at 0.3 µM for each of the items listed below.
1. CCn1c(=O)cc(C2CC2)c2cc(-n3c(-c4ccc(C(F)(F)F)cc4)cn(C)c3=O)ccc21
2. CCn1c(=O)cc(C2CCN(C)CC2)c2cc(C(=O)N(C)c3ccc(C)c(C)c3)ccc21
3. CCn1c(=O)cc(C2CCN(C)CC2)c2cc(C(=O)N(C)c3ccc(C)c(F)c3)ccc21
4. CCn1c(=O)cc(C2CCN(C(=O)C(C)C)CC2)c2cc(C(=O)N(C)c3ccc(C)cc3)ccc21
5. CCn1c(=O)cc(C2CC2)c2cc(-n3c(C)cc(=O)n3-c3ccccc3)ccc21 [Example 282b]

(A)
[87, 85, 85, 83, 87]

// for each compound in input: emit inhibition at 0.3 µM
1. Cc1ccc(N(C)C(=O)c2ccc3c(c2)c(C2CCN(C)CC2)cc(=O)n3C)cc1
2. CCCCn1cc(-c2ccccc2)n(-c2ccc3c(c2)c(N2CCOCC2)cc(=O)n3CC)c1=O
3. CCn1c(=O)cc(C2CC2)c2cc(N3C(=O)C(C)C(=O)N3c3ccccc3)ccc21 (stereo not shown)
4. CCn1c(=O)cc(N2CCOCC2)c2cc(-n3c(-c4ccccc4)cn(C(C)C)c3=O)ccc21
5. CCn1c(=O)cc(C2CC2)c2cc(-n3c(-c4ccc(Cl)cc4)c[nH]c3=O)ccc21

(A)
1: 87; 2: 88; 3: 90; 4: 89; 5: 88

Field inhibition at 0.3 µM (entry `CCn1c(=O)cc(N2CCOCC2)c2cc(-c3ccccc3-c3ccccc3)ccc21` ) reads 72

====

Assign IC50 to each entry below.
assay-target: BRD3 BD2 (Homo sapiens, UniProt Q15059)
Construct: BRD2 BD2, BRD3 BD2 and BRD4 BD2 (Cisbio)
Sequence (Q15059 306-415 limits assumed): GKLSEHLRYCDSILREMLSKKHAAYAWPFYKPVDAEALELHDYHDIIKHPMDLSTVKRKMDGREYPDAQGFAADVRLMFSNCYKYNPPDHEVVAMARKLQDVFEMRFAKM
test: Binding assay, BRD3 BD2 to acetylated histone H4 Peptide-Biotin (EPIgeneous Binding Domain Kit B)
One number for each entry, in nM.

The cases that follow already have their IC50 on record.
CCn1c(=O)cc(N2CCOCC2)c2cc(-n3c(-c4ccc(Cl)cc4)cn(C)c3=O)ccc21 | 12
CCn1c(=O)cc(C2CCN(C(C)=O)CC2)c2cc(C(=O)N(C)c3ccc(C)cc3)ccc21 | 59
CCn1c(=O)cc(C2CCN(C)CC2)c2cc(C(=O)N(C)c3ccc(C)cc3)ccc21 | 70
CCn1c(=O)cc(C2CCN(C)CC2)c2cc(C(=O)N(C)c3ccc4c(c3)CCC4)ccc21 | 14

Moving on to another compound below.
Documented IC50 of `CCn1c(=O)cc(N2CCOCC2)c2cc(-n3c(-c4ccc(Cl)cc4)c[nH]c3=O)ccc21` : 4

The measured values listed here are drawn from patent US10987349B2.
